# Tested on: HDACs (HeLa cell nuclear extracts)
# Assay info: HDAC enzymatic activity, Biomol Color de Lys system
# Type: biochemical
# Experimental setup: 1 hour, 25° C.
pIC50: −log10 of the molar value.
Result type: pIC50

CN(Cc1cc2nc(-c3ccc(OCCO)nc3)nc(N3CCOCC3)c2s1)c1ncc(C(=O)NO)cn1
> 7.00
O=C(NO)c1cnc(N2CCN(S(=O)(=O)c3cc4nc(-c5cccc6[nH]ncc56)nc(N5CCOCC5)c4s3)CC2)nc1
6.00 to 7.00
O=C(CCCCCNCc1cc2nc(-c3cccc4[nH]ncc34)nc(N3CCOCC3)c2s1)NO
> 7.00
CN(Cc1cc2nc(-c3cccc(OCCO)c3)nc(N3CCOCC3)c2s1)c1ncc(C(=O)NO)cn1
> 7.00
CN(Cc1cc2nc(-c3ccc(OCc4ccccc4)nc3)nc(N3CCOCC3)c2s1)c1ncc(C(=O)NO)cn1
> 7.00
CN(Cc1cc2nc(-c3cccnc3)nc(N3CCOCC3)c2s1)c1ncc(C(=O)NO)cn1
> 7.00
CN(C)CCN(Cc1cc2nc(-c3cccc4[nH]ncc34)nc(N3CCOCC3)c2s1)c1ncc(C(=O)NO)cn1
6.00 to 7.00
O=C(NO)c1cc2nc(-c3cccc4[nH]ncc34)nc(N3CCOCC3)c2s1
< 5.00
O=C(/C=C/c1cc2nc(-c3cccc4[nH]ncc34)nc(N3CCOCC3)c2s1)NO
5.00 to 6.00
O=C(CCCCNCc1cc2nc(-c3cccc4[nH]ncc34)nc(N3CCOCC3)c2s1)NO
> 7.00

// pIC50 lookup, compound = "CCCN(Cc1cc2nc(-c3cccc4[nH]ncc34)nc(N3CCOCC3)c2s1)c1ncc(C(=O)NO)cn1" , result: > 7.00

// pIC50 lookup, compound = "CC(C)c1ccc(-c2nc(N3CCOCC3)c3sc(CN(C)c4ncc(C(=O)NO)cn4)cc3n2)cc1" , result: > 7.00

###

# Test system: OPM-2
# Assay info: Cell proliferation assay (CellTiter-Glo)
# Type: cell-based
# Experimental setup: Homo sapiens, Multiple Myeloma, 72 hours, 0.5% fetal bovine serum, read-out: antiproliferative activity IC50, OPM-2
Quick reference for IC50 among some compounds

CN(Cc1cc2nc(-c3ccc(N)cc3)nc(N3CCOCC3)c2s1)c1ncc(C(=O)NO)cn1
< 10 nM
CNc1ccc(-c2nc(N3CCOCC3)c3sc(CN(C)c4ncc(C(=O)NO)cn4)cc3n2)cn1
< 10 nM
CN(Cc1cc2nc(-c3ccc(N)nc3)nc(N3CCOCC3)c2s1)c1ncc(C(=O)NO)cn1
< 10 nM
COc1ccc(-c2nc(N3CCOCC3)c3sc(CN(C)c4ncc(C(=O)NO)cn4)cc3n2)cn1
< 10 nM

// IC50 lookup, compound = "CN(Cc1cc2nc(-c3cccc(CO)c3)nc(N3CCOCC3)c2s1)c1ncc(C(=O)NO)cn1" , result: < 10 nM

// IC50 lookup, compound = CS(=O)(=O)N1CCN(Cc2cc3nc(-c4cccc5[nH]ncc45)nc(N4CCOCC4)c3s2)CC1 [GDC-0941, reference compound] , result: 100 to 1000 nM

// IC50 lookup, compound = "CN(Cc1cc2nc(-c3cnc(N)nc3)nc(N3CCOCC3)c2s1)c1ncc(C(=O)NO)cn1" , result: 10 to 100 nM

Where do these numbers come from? They come from patent US20130102595A1.
